These data points were gathered from patent US4980349A.

- Test system: pain threshold of brewer's yeast inflamed rat hind foot
- ASSAY: Randall and Sellitto's test (analgesic activity)
- Type: in vivo
- EXPERIMENTAL SETUP: 25 mg/kg oral, first experiment, Table XII, read-out: percentage increase in the mean pain threshold
PROPERTY NAME: change in vivo at 25 mg/kg (%)

- COMPOUND: "O=C(O)CCCNS(=O)(=O)c1ccc(Cl)cc1C(=O)c1ccccc1 [Compound 1567]"
  PROPERTY NAME: "change in vivo at 25 mg/kg"
  VALUE UNITS: "%"
  RECORDED VALUE: 12
- COMPOUND: "O=C(O)CCCCCCCCCCNS(=O)(=O)c1ccc(Cl)cc1C(=O)c1ccccc1 [Compound 1572]"
  PROPERTY NAME: "change in vivo at 25 mg/kg"
  VALUE UNITS: "%"
  RECORDED VALUE: 18
- COMPOUND: "O=C(O)CCCCCCCCCCNS(=O)(=O)c1ccc([N+](=O)[O-])cc1C(=O)c1ccccc1 [Compound 1571]"
  PROPERTY NAME: "change in vivo at 25 mg/kg"
  VALUE UNITS: "%"
  RECORDED VALUE: 25
- COMPOUND: "O=C(c1ccccc1)c1cc(Cl)ccc1S(=O)(=O)NCCCN1CCOCC1 [Compound 1344]"
  PROPERTY NAME: "change in vivo at 25 mg/kg"
  VALUE UNITS: "%"
  RECORDED VALUE: 18

----------
change in vivo at 100 mg/kg: recorded values
- System: rat hind foot kaolin-induced arthritis
- ASSAY: Kaolin-induced arthritis test, second experiment, acute phase (volume of the foot at the 8th hour)
- Format: in vivo
- EXPERIMENTAL SETUP: po, 8 h, 100 mg/kg, 8th hour, Table IXa, read-out: percentage significant decrease in the volume of the treated foot
- Experimental: The […] of 0.05 ml of a sterile 10% strength suspension of kaolin into the metatarsal flexor sheath of the hind foot of a rat initially induces an oedematous reaction. An inflammatory arthritis then forms. The early oedematous reaction appears from the first hour, and reaches its maximum between the fourth hour and the sixth hour. This is the manifestation of interest. […] The results are expressed as a percentage significant decrease in the volume of the treated foot compared with the controls.
PROPERTY NAME: change in vivo at 100 mg/kg (%)

- COMPOUND: "O=C(O)CCCCCCCCCCNS(=O)(=O)c1ccc(Cl)cc1Cc1ccccc1Cl"
  PROPERTY NAME: "change in vivo at 100 mg/kg"
  RECORDED VALUE: -60
- COMPOUND: "O=C(O)CCCCCCCCCCNS(=O)(=O)c1ccc(Cl)cc1C(O)c1ccccc1Cl (centres unmarked)"
  PROPERTY NAME: "change in vivo at 100 mg/kg"
  RECORDED VALUE: -60
- COMPOUND: "O=C(O)CCCCCCCCCCCNS(=O)(=O)c1ccc(Cl)cc1C(=O)c1ccccc1Cl"
  PROPERTY NAME: "change in vivo at 100 mg/kg"
  RECORDED VALUE: -55
- COMPOUND: "O=C(O)CCCCCCCCCCNS(=O)(=O)c1ccc(Cl)c(C(=O)c2ccc(Cl)cc2)c1"
  PROPERTY NAME: "change in vivo at 100 mg/kg"
  RECORDED VALUE: -50
- COMPOUND: "O=C(O)CCCCCCCCCCNS(=O)(=O)c1ccc(Cl)c(C(=O)c2ccc(Cl)cc2Cl)c1"
  PROPERTY NAME: "change in vivo at 100 mg/kg"
  RECORDED VALUE: -50
- COMPOUND: "O=C(O)CCCCCCCCCCNS(=O)(=O)c1ccc(Cl)cc1C(=O)c1ccccc1Cl"
  PROPERTY NAME: "change in vivo at 100 mg/kg"
  RECORDED VALUE: -68
- COMPOUND: "O=C(O)CCCCCCCCCCCNS(=O)(=O)c1ccc(Cl)c(C(=O)c2ccc(Cl)cc2Cl)c1"
  PROPERTY NAME: "change in vivo at 100 mg/kg"
  RECORDED VALUE: -60
- COMPOUND: "O=C(O)CCCCCCCCCCCNS(=O)(=O)c1ccc(Cl)c(C(=O)c2ccccc2)c1"
  PROPERTY NAME: "change in vivo at 100 mg/kg"
  RECORDED VALUE: -55
